Data provenance is patent US20230144436A1.

System: DMPK
Assay: DMPK knockdown by transfected antisense oligonucleotides in DM1 C15 myotubes at 0.5 nM and 50 nM
Assay type: cell-based
Settings: 50 nM oligonucleotide, 72 hours
Note to self: use t only for Percent DMPK Reduction readings below 60%; a reading exactly at 60% still gets f.

Worked set:
# SUBSTANCE, MEASUREMENT_TARGET, CLASSIFICATION
data = [
    ("460 (GGUCCAGCAGGAUGUUGUCG; chemistry not given here) [compound 460]", "DMPK", "f"),
    ("409 (GGCUUGCUGCCUUCCCAGGC; chemistry not given here) [compound 409]", "DMPK", "t"),
    ("386 (CUCAGUGCAUCCAAAACGUG; chemistry not given here) [compound 386]", "DMPK", "t"),
    ("479 (UUGUAGUGGACGAUCUUGCC; chemistry not given here) [compound 479]", "DMPK", "f"),
    ("463 (AGGUAGUUCUCAUCCUGGAA; chemistry not given here) [compound 463]", "DMPK", "f"),
    ("462 (UCUGCCUCGCGUAGUGACU; chemistry not given here) [compound 462]", "DMPK", "f"),
    ("437 (CAUCCGCUCCUGCAACUGCC; chemistry not given here) [compound 437]", "DMPK", "f"),
    ("443 (CCAUCCGCUCCUGCAACUGC; chemistry not given here) [compound 443]", "DMPK", "f"),
    ("391 (UCACCAACACGUCCCUCUCC; chemistry not given here) [compound 391]", "DMPK", "f"),
    ("384 (UGGACGAUCUUGCCAUAGGU; chemistry not given here) [compound 384]", "DMPK", "t"),
]

-- ask Here's an entry: 456 (CCUCAGCCUGGCCGAAAGAA; chemistry not given here) [compound 456] . Is its Percent DMPK Reduction below 60%?
-- reply f

-- ask Here's an entry: 475 (GCCUCAGCCUGGCCGAAAGA; chemistry not given here) [compound 475] . Is its Percent DMPK Reduction below 60%?
-- reply f

-- ask Here's an entry: 395 (AAGGGCGUCUGCCCAUAGAA; chemistry not given here) [compound 395] . Is its Percent DMPK Reduction below 60%?
-- reply t

----------
Overview of reported Normalized DMPK Remaining across a group of substances:
Tested on: DMPK
Assay: DMPK knockdown by transfected antisense oligonucleotides in DM1 C15 myotubes at 0.5 nM and 50 nM
Type: cell-based
Settings: 0.5 nM oligonucleotide, 72 hours, qPCR, relative to vehicle control = 1.00

# example entries with known answers
# SUBSTANCE, Normalized DMPK Remaining
data = [
    ("339 (CUCCGCCAGGUAGAAGCGCG; chemistry not given here) [compound 339]", 0.70),
    ("258 (AACUUGCUCAGCAGUGUCAG; chemistry not given here) [compound 258]", 0.80),
    ("266 (AAUACUCCAUGACCAGGUAC; chemistry not given here) [compound 266]", 0.71),
]

-- ask Provide measured Normalized DMPK Remaining value, entry: 361 (GCCAUGACAAUCUCCGCCAG; chemistry not given here) [compound 361]
-- reply 0.69

----------
Test system: DMPK
Assay: DMPK knockdown by transfected antisense oligonucleotides in DM1 C15 myotubes at 0.5 nM and 50 nM
Type: cell-based
Conditions: 0.5 nM oligonucleotide, 72 hours, relative to vehicle control = 1.00
RECORDED_METRIC: Normalized DMPK Remaining
Form rule: numeric answer, no unit written next to it.

# example entries with known answers
# SUBSTANCE, READING
measured = [
    ("433 (GCGGAUGGCCUCCAUCUCCC; chemistry not given here) [compound 433]", 0.79),
    ("417 (CCAGCAGGAUGUUGUCGGGU; chemistry not given here) [compound 417]", 0.60),
    ("423 (GGCUCAGGCUCUGCCGGGUG; chemistry not given here) [compound 423]", 0.93),
    ("413 (GACAGACAAUAAAUACCGAG; chemistry not given here) [compound 413]", 0.82),
    ("461 (CGGAGACCAUCCCAGUCGAG; chemistry not given here) [compound 461]", 0.86),
    ("380 (UGCCCAUAGAACAUUUCAUA; chemistry not given here) [compound 380]", 0.92),
    ("465 (GCAUCCAAAACGUGGAUUGG; chemistry not given here) [compound 465]", 0.97),
    ("432 (UGCCUCGCGUAGUUGACUGG; chemistry not given here) [compound 432]", 0.89),
    ("472 (AAGGGAUGUGUCCGGAAGUC; chemistry not given here) [compound 472]", 0.90),
    ("454 (GCAGAGAGAGGUGCUCCUUG; chemistry not given here) [compound 454]", 0.83),
]

-- ask Provide measured Normalized DMPK Remaining value, entry: 429 (GCGGUCCAGCAGGAUGUUGU; chemistry not given here) [compound 429]
-- reply 0.61

-- ask Provide measured Normalized DMPK Remaining value, entry: 416 (GCCUCGCGUAGUUGACUGGC; chemistry not given here) [compound 416]
-- reply 0.87

-- ask Provide measured Normalized DMPK Remaining value, entry: 431 (GGAGCAGGGAAAGCGCCUCC; chemistry not given here) [compound 431]
-- reply 0.79

-- ask Provide measured Normalized DMPK Remaining value, entry: 403 (UCUCCGCCAGGUAGAAGCGC; chemistry not given here) [compound 403]
-- reply 0.80

-- ask Provide measured Normalized DMPK Remaining value, entry: 451 (CAGGAUGUUGUCGGGUUUGA; chemistry not given here) [compound 451]
-- reply 0.83

-- ask Provide measured Normalized DMPK Remaining value, entry: 386 (CUCAGUGCAUCCAAAACGUG; chemistry not given here) [compound 386]
-- reply 0.92

-- ask Provide measured Normalized DMPK Remaining value, entry: 398 (ACGUGUGCCUCUAGGUCCCG; chemistry not given here) [compound 398]
-- reply 0.84

----------
Test system: DMPK
Assay: DMPK knockdown by transfected antisense oligonucleotides in DM1 C15 myotubes at 0.5 nM and 50 nM
Assay type: cell-based
Conditions: 0.5 nM oligonucleotide, 72 hours, qPCR, relative to vehicle control
RECORDED_METRIC: Percent DMPK Reduction (%)
Report as a plain number; the unit % is understood.

-- ask Provide measured Percent DMPK Reduction value, entry: 308 (UGACAAUCUCCGCCAGGUAG; chemistry not given here) [compound 308]
-- reply 38.86

----------
Test system: DMPK
Assay: DMPK knockdown by transfected antisense oligonucleotides in DM1 C15 myotubes at 0.5 nM and 50 nM
Format: cell-based
Conditions: 50 nM oligonucleotide, 72 hours
RECORDED_METRIC: Percent DMPK Reduction (%)
Report as a plain number; the unit % is understood.

# example entries with known answers
# SUBSTANCE, UNITS_TEXT, READING
measured = [
    ("435 (GCCUGUCAGCGAGUCGGAGG; chemistry not given here) [compound 435]", "%", 75.67),
    ("472 (AAGGGAUGUGUCCGGAAGUC; chemistry not given here) [compound 472]", "%", 73.52),
    ("457 (GGGCCUUUUAUUCGCGAGGG; chemistry not given here) [compound 457]", "%", 50.65),
    ("411 (UUGCCCAUCCACGUCAGGGC; chemistry not given here) [compound 411]", "%", 67.15),
    ("413 (GACAGACAAUAAAUACCGAG; chemistry not given here) [compound 413]", "%", 38.07),
]

-- ask Provide measured Percent DMPK Reduction value, entry: 389 (CCGAGAGCAGCGCAAGUGAG; chemistry not given here) [compound 389]
-- reply 40.93

-- ask Provide measured Percent DMPK Reduction value, entry: 398 (ACGUGUGCCUCUAGGUCCCG; chemistry not given here) [compound 398]
-- reply 77.73

-- ask Provide measured Percent DMPK Reduction value, entry: 430 (GUCUAUGGCCAUGACAAUCU; chemistry not given here) [compound 430]
-- reply 73.11

-- ask Provide measured Percent DMPK Reduction value, entry: 427 (UUGUUCAUGAUCUUCAUGGC; chemistry not given here) [compound 427]
-- reply 45.23

-- ask Provide measured Percent DMPK Reduction value, entry: 400 (UGACCAGGUACAGGUAGUUC; chemistry not given here) [compound 400]
-- reply 63.73

-- ask Provide measured Percent DMPK Reduction value, entry: 444 (GCGUCACCUCGGCCUCAGCC; chemistry not given here) [compound 444]
-- reply 81.27

-- ask Provide measured Percent DMPK Reduction value, entry: 420 (ACAAUCUCCGCCAGGUAGAA; chemistry not given here) [compound 420]
-- reply 49.75

-- ask Provide measured Percent DMPK Reduction value, entry: 378 (GGAUGUUGUCGGGUUUGAUG; chemistry not given here) [compound 378]
-- reply 40.81
